Target: RPS10 (Homo sapiens)
Construct: made in house; host or cells: E. coli BL-21
Type: binding
Details: read-out: IC50 (line under RPS10 binding data)
Observed Property: IC50 (µM)
Your answer is read as µM, so omit the unit and give the number.

Worked examples, 2 compounds total:
| Compound | Value Unit | IC50 |
| --- | --- | --- |
| CCOC(=O)c1ccsc1NC(=O)CN1C(=O)NC(C)(c2cccc3ccccc23)C1=O (stereo not shown) | µM | 3.7 |
| COc1ccc(C=C2CSc3ccc(Cl)cc3C2=O)cc1O | µM | 6.7 |

Quick one: IC50 of Cn1c(=O)c2ccccc2n2c(CNC(c3ccc4c(c3)CCC4)c3cccs3)nnc12 (stereo not shown) ?
4.5

Report IC50 for O=C(COc1ccccc1[N+](=O)[O-])NCc1ccc(-c2ccc(Br)cc2)o1 please.
4.9

IC50 for Cc1ccc(C(=O)c2cc(O)c(O)c([N+](=O)[O-])c2)cc1 ?
7.4

Quick one: IC50 of Cc1cc(-n2c(C)cc(-c3csc(N)n3)c2C)no1 ?
6.4

What value of IC50 has been reported for the following compound? Cc1ccc(C)n1-c1cc([N+](=O)[O-])ccc1N1CCN(C(=O)c2ccccc2)CC1
9.9

Recorded IC50 of COc1cccc(Nc2nc(-c3ccc(NC(C)=O)cc3)c(C)s2)c1 , please.
7.7

Field request: IC50 | item: O=c1cc(CN2CCOCC2)occ1OCCCCCSc1ccnc2cc(C(F)(F)F)ccc12
22.1

State the recorded IC50 for this entry: C=CCNC(=O)CN1CCN(Cc2nc3cc(-c4ccc(Cl)cc4)sc3c(=O)[nH]2)CC1
16.8

---

Target: RPS10 (Homo sapiens)
Construct: made in house; host or cells: E. coli BL-21
Format: binding
Conditions: 1Ai conc. 0.5 uM
Label T when RPS10 fluorescence ratio to control >= 1; otherwise F.

Past entries and their recorded results:
| Molecule | Group |
| --- | --- |
| C=CCNC(=O)CN1CCN(Cc2nc3cc(-c4ccc(Cl)cc4)sc3c(=O)[nH]2)CC1 [1Ai-1524] | T |
| Cc1cc(-n2c(C)cc(-c3csc(N)n3)c2C)no1 [1Ai-6464] | F |
| Cn1c(=O)c2ccccc2n2c(CNC(c3ccc4c(c3)CCC4)c3cccs3)nnc12 (stereo not drawn) [1Ai-7688] | T |
| O=C(C=Cc1ccc(Cl)s1)Nc1cccc2ncccc12 [1Ai-4860] | F |

Could you verify whether the entry Oc1cc(Cl)ccc1Oc1ccc(Cl)cc1Cl [1Ai-6248] shows RPS10 fluorescence ratio to control of no less than 1?
F

Quick check, RPS10 fluorescence ratio to control >= 1? COc1ccc(C=C2CSc3ccc(Cl)cc3C2=O)cc1O [1Ai-5175]
F

---

Target: RPS10 (Homo sapiens, UniProt P46783)
Construct: made in house; host or cells: E. coli BL-21
Assay type: binding
Conditions: fluorescence binding; read-out: RPS10 IC50
Observed Property: IC50 (µM)
Respond numerically; units are µM and should not be typed.

Suppose we examine the compound O=C(CSc1nc(-c2ccccc2)cn1-c1ccccc1)NC(=O)Nc1ccccc1 [1Ai-2383] ; what IC50 value has been reported?
0.7

---

Biological target: RPS10 (Homo sapiens)
Construct: made in house; host or cells: E. coli BL-21
Assay type: binding
Details: 1Ai conc. 8 uM
Observed Property: RPS10 fluorescence ratio to control
Reply: number alone, nothing else.

Consider the molecule shown here: CCOC(=O)c1ccsc1NC(=O)CN1C(=O)NC(C)(c2cccc3ccccc23)C1=O (centres unmarked) [1Ai-1861] What is its recorded RPS10 fluorescence ratio to control?
0.1947

Report RPS10 fluorescence ratio to control for CN(C)CC1CCn2cc(c3ccccc32)C2=C(C(=O)NC2=O)c2cn(c3ccccc23)CCO1 (centres unmarked) [1Ai-5662] please.
0.6979

Given the molecule COc1ccc(C=C2CSc3ccc(Cl)cc3C2=O)cc1O [1Ai-5175] , what is its reported RPS10 fluorescence ratio to control?
0.4718

Param item = Cc1ccc(C(=O)c2cc(O)c(O)c([N+](=O)[O-])c2)cc1 [1Ai-5576] ; retrieve measured RPS10 fluorescence ratio to control.
0.4488

Requested field: RPS10 fluorescence ratio to control. Item: Cn1c(=O)c2ccccc2n2c(CNC(c3ccc4c(c3)CCC4)c3cccs3)nnc12 (centres unmarked) [1Ai-7688]
0.3218

I have this molecule here, O=C(C=Cc1ccc(Cl)s1)Nc1cccc2ncccc12 [1Ai-4860] , and I need its recorded RPS10 fluorescence ratio to control.
0.814

Any idea what its RPS10 fluorescence ratio to control is? The molecule is CCOc1cc(C(=O)Nc2ccc(Cl)c(-c3nc4ccccc4[nH]3)c2)cc(OCC)c1OCC [1Ai-5677]
1.116

Return reported RPS10 fluorescence ratio to control; argument: O=C(COc1ccccc1[N+](=O)[O-])NCc1ccc(-c2ccc(Br)cc2)o1 [1Ai-4700]
0.904
